target: D(2) dopamine receptor (Rattus norvegicus, UniProt P61169)
Sequence (P61169 whole entry): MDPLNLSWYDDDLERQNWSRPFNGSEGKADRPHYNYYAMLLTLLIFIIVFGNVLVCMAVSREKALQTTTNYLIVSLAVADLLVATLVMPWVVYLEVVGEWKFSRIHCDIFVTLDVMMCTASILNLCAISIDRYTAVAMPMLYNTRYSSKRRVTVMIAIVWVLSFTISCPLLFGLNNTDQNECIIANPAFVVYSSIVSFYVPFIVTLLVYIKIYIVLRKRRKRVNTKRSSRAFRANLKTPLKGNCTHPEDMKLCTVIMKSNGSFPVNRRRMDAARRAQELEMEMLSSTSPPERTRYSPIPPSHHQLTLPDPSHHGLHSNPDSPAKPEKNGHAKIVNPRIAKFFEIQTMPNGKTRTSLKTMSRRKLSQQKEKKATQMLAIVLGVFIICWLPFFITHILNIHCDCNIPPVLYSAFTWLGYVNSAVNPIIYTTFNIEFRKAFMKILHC
method-summary: Inhibition of [3H]spiperone binding to Dopamine receptor D2 from rat striatal membranes
IC50 overview
measured-parameter: IC50

compound | data-value
CN1CCN(CCN2CCN(C3CC(c4ccc(F)cc4)c4ccc(F)cc43)CC2)C1=O.Cl.Cl (stereo not given) | 260 nM
O.O=C1NCCN1CCN1CCN([C@H]2C[C@H](c3ccc(F)cc3)c3ccccc32)CC1 | 13000 nM
COc1ccc(C2CC(N3CCN(CCN4CCNC4=O)CC3)c3ccccc32)cc1 (stereo not given) | 15000 nM
Fc1ccc([C@@H]2C[C@@H](N3CCN(CCN4CCN=C4S)CC3)c3cc(F)ccc32)cc1.O=C(O)/C=C\C(=O)O.O=C(O)/C=C\C(=O)O | 29 nM
CN1CCN(CCN2CCN([C@@H]3C[C@@H](c4ccc(F)cc4)c4ccc(F)cc43)CC2)C1=O | 38 nM

###

Organism: Rattus norvegicus
method-summary: Inhibition of L-5-HTP (L-5-hydroxytryptophan) induced head twitches in rat
Format: functional
measured-parameter: ED50 (µmol/kg)

compound | measured-parameter | rel | data-value
Cl.Cl.OC1=NCCN1CCCN1CCN(C2CC(c3ccc(F)cc3)c3ccc(F)cc32)CC1 (configuration not stated) | ED50 | = | 2
CN1CCN(CCN2CCN([C@H]3C[C@H](c4ccc(F)cc4)c4ccc(F)cc43)CC2)C1=O | ED50 | > | 45
O=C1NCCN1CCN1CCN(C2CCc3ccccc32)CC1 (configuration not stated) | ED50 | > | 8
O=C(O)/C=C\C(=O)O.O=C(O)/C=C\C(=O)O.O=C1NCCN1CCN1CCN([C@H]2C[C@H](c3ccc(F)cc3)c3ccc(F)cc32)CC1 | ED50 | = | 20
O.O=c1[nH]c2ccccc2c(=O)n1CCN1CCN(C2CC(c3ccc(F)cc3)c3ccc(F)cc32)CC1 (configuration not stated) | ED50 | = | 2.3
O=C(O)/C=C\C(=O)O.O=C(O)/C=C\C(=O)O.O=C1NCCN1CCN1CCN([C@@H]2C[C@@H](c3ccc(F)cc3)c3ccc(F)cc32)CC1 | ED50 | = | 0.096

###

target: Norepinephrine transporter (Rattus norvegicus, UniProt Q9WTR4)
Sequence (Q9WTR4 whole entry): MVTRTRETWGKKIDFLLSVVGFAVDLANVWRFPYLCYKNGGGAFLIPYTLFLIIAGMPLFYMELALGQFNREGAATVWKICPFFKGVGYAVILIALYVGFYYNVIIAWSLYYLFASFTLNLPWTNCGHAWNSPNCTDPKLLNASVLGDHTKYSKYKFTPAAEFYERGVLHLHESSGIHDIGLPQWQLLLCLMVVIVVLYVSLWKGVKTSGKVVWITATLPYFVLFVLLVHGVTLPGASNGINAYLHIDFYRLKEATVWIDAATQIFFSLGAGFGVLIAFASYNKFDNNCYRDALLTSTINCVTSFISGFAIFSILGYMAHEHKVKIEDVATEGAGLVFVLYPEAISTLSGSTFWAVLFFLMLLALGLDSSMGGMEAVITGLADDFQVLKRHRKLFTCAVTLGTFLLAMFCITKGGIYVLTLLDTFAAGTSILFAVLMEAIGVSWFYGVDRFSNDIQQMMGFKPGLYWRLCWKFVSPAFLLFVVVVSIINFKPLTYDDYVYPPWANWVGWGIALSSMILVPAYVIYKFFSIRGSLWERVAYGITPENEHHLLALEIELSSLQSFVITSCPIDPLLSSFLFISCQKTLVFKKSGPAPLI
method-summary: In vitro inhibition of [3H]norepinephrine uptake in rat brain synaptosomes
A collection of molecules and their measured IC50

molecule | target | IC50 (nM)
O=C1NCCN1CCN1CCN([C@@H]2C[C@@H](c3ccc(F)cc3)c3ccccc32)CC1 (stereo in doubt; 27) [IRINDALONE] | Norepinephrine transporter (Rattus norvegicus, UniProt Q9WTR4) | 44
O=C(O)/C=C\C(=O)O.O=C(O)/C=C\C(=O)O.O=C1NCCN1CCN1CCN([C@H]2C[C@H](c3ccc(F)cc3)c3ccc(F)cc32)CC1 | Norepinephrine transporter (Rattus norvegicus, UniProt Q9WTR4) | 17
O.O=C1NCCN1CCN1CCN([C@H]2C[C@H](c3ccc(F)cc3)c3ccccc32)CC1 | Norepinephrine transporter (Rattus norvegicus, UniProt Q9WTR4) | 69
O=C(O)/C=C\C(=O)O.O=C(O)/C=C\C(=O)O.O=C1NCCN1CCN1CCN([C@@H]2C[C@@H](c3ccc(F)cc3)c3ccc(F)cc32)CC1 | Norepinephrine transporter (Rattus norvegicus, UniProt Q9WTR4) | 2500
Fc1ccc([C@H]2C[C@H](N3CCNCC3)c3ccccc32)cc1.O=C(O)/C=C\C(=O)O.O=C(O)/C=C\C(=O)O | Norepinephrine transporter (Rattus norvegicus, UniProt Q9WTR4) | 140
O=C1NCCN1CCN1CCN([C@@H]2C[C@@H](c3ccc(F)cc3)c3ccccc32)CC1 (stereo in doubt; (+)2) [IRINDALONE] | Norepinephrine transporter (Rattus norvegicus, UniProt Q9WTR4) | 22000
CN1CCN([C@H]2C[C@H](c3ccc(F)cc3)c3ccc(F)cc32)CC1 | Norepinephrine transporter (Rattus norvegicus, UniProt Q9WTR4) | 28
Fc1ccc([C@@H]2C[C@@H](N3CCNCC3)c3ccccc32)cc1.O=C(O)/C=C\C(=O)O.O=C(O)/C=C\C(=O)O | Norepinephrine transporter (Rattus norvegicus, UniProt Q9WTR4) | 450
CN1CCN([C@@H]2C[C@@H](c3ccc(F)cc3)c3ccc(F)cc32)CC1 | Norepinephrine transporter (Rattus norvegicus, UniProt Q9WTR4) | 12000
